Kindly state T/C for each of the entries shown.
Test system: P388 leukemia ip, CD2F1 mice, survival T/C
run.description: NCI In Vivo Anticancer Drug Screen. Data for tumor model P388 Leukemia (intraperitoneal) in CD2F1 (CDF1) mice
assay.context: endpoint: median survival time; dose: 50.0 mg/kg/injection; schedule: Q01DX009 (ip); vehicle: saline with Tween-80; higher = longer survival
Toxic doses and inconclusive results are not listed.

Task: # lookup: T/C of CSc1nc2ncnn2c(=O)[nH]1
Result: 100 % of control

Task: # lookup: T/C of Cc1noc(C)c1Br
Result: 97 % of control

Task: # lookup: T/C of O=C(CON1C(=O)CCC1=O)c1ccccc1
Result: 106 % of control

Task: # lookup: T/C of C=C1C(=O)O[C@@H]2C[C@@]3(C)CCC[C@H](C)C3=C[C@H]12
Result: 98 % of control

Task: # lookup: T/C of N#CC(C#N)=CNc1ccccc1
Result: 100 % of control

Task: # lookup: T/C of CC(C)(C)N=C(CCN1CCCCC1)Nc1cccc(Cl)c1
Result: 110 % of control

Task: # lookup: T/C of COc1cc(CN)ccc1O
Result: 103 % of control

Task: # lookup: T/C of O=S(/N=C/c1ccccc1)c1ccc(Cl)cc1 (centres undefined)
Result: 96 % of control

Task: # lookup: T/C of Nc1nc2nc[nH]c2c(=O)[nH]1
Result: 98 % of control

Task: # lookup: T/C of CC1(C)N=C(N)N=C(N)N1c1ccc(OCC(=O)Nc2ccccc2)c(Cl)c1
Result: 104 % of control

Task: # lookup: T/C of CC1C(=O)OC(C)(C)C1(C)C (centres undefined)
Result: 101 % of control

Task: # lookup: T/C of NC(=S)COc1ccccc1
Result: 105 % of control

Task: # lookup: T/C of Cc1ccc(O)c(C(c2cc(C)ccc2O)c2ccccc2Cl)c1
Result: 108 % of control

Task: # lookup: T/C of CSC(=S)c1ccc(O)c2ccccc12
Result: 114 % of control
